Hello, the source for this data is patent US20040265847A1, in case you need it.

Test system: human brain 130/110 kDa APP
Test: ^65Zn binding to human brain 130/110 kDa APP (time course, competition, Scatchard)
Conditions: unlabelled metal ion at 20 μM
measured_endpoint: ^65Zn label competed off APP (of Bmax) (%)
Write down the numeric answer in % and omit the unit.

[Co+2] [Co^2+, reference compound] | 70
[Cu+2] [Cu^2+, reference compound] | 60

^65Zn label competed off APP (of Bmax) reported for this compound [Cl][Al]([Cl])[Cl] [Al^3+] : 60

---

Test: dot-blot ^65Zn^2+ binding to synthetic peptides (putative zinc-binding domain of APP)
Conditions: 16 μg peptide dot-blotted
Protocol: 16 μg of the synthesized peptide […], representing residues 181-214 of APP695 (or residues 181-200), or 16 μg of control peptide, was dissolved in 200 μl of blocking buffer (50 mM Tris-HCl, 1 mM MnCl2 10 mM β-mercaptoethanol, 20% methanol, pH 7.4) and dot-blotted onto PVDF (Immobilon-P, Millipore, Befored, Mass.) which had been pre-wetted with methanol. […]
measured_endpoint: ability to bind ^65Zn^2+

residues 645-655: peptide representing another region of the APP molecule (KTEEISEVKMD; UniProt P05067 662-672, looked up, fragment) | unable to bind Zn^2+
residues 581-601: peptide representing another region of the APP molecule (TETKTTVELLPVNGEFSLDDL; UniProt P05067 598-618, looked up, fragment) | unable to bind Zn^2+
residues 422-433: peptide representing another region of the APP molecule (VESLEQEAANER; UniProt P05067 439-450, looked up, fragment) | unable to bind Zn^2+
